target: human JAK3 (a.a. 781-1124) (Homo sapiens); construct: JAK3 (a.a. 781-1124); His tag (N); made in house; host or cells: insect cells (baculovirus); assay: In vitro JAK kinase assay (HTRF, phosphorylation of a biotinylated peptide), JAK3; format: biochemical; conditions: method AA1 (3 μM ATP) or AA2 (1000 μM ATP), not stated per value
Sequence (P52333 781-1124): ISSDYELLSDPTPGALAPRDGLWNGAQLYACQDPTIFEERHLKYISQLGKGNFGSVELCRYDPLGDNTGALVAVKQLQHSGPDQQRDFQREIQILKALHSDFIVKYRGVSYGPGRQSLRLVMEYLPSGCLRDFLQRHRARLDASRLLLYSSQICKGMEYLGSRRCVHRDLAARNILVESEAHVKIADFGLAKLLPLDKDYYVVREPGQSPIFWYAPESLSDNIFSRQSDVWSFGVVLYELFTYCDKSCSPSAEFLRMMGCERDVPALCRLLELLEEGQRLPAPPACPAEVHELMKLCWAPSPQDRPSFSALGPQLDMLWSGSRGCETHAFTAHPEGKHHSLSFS
assay.endpoint: IC50

Please review the following examples before continuing.
INSERT INTO assay_data (compound, result) VALUES
  ('O=C(COc1ccc2cc1CCc1cncc(c1)Nc1ncc(Cl)c(n1)N2)N1CCn2c(nnc2C(F)(F)F)C1 [Example A249, bis(trifluoroacetate)]', '> 400 nM'),
  ('Cc1noc(C)c1NC(=O)N1CCC(CC(=O)Nc2ccc3cc2CCc2cncc(c2)Nc2ncc(Cl)c(n2)N3)CC1 [Example A19, bis(trifluoroacetate)]', '> 100 nM');

Note: attention shifts to another entry.
IC50 for human JAK3 (a.a. 781-1124) (Homo sapiens) with input N#Cc1ccc(C(F)(F)F)cc1N1CCC(CC(=O)Nc2ccc3cc2CCc2cncc(c2)Nc2ncc(Cl)c(n2)N3)CC1 [Example A237, tris(trifluoroacetate)] equals > 400 nM

====

target: UniProt P29597; assay: TYK2 kinase inhibition (Table A1); type: biochemical; conditions: Table B1
Sequence (P29597 whole entry): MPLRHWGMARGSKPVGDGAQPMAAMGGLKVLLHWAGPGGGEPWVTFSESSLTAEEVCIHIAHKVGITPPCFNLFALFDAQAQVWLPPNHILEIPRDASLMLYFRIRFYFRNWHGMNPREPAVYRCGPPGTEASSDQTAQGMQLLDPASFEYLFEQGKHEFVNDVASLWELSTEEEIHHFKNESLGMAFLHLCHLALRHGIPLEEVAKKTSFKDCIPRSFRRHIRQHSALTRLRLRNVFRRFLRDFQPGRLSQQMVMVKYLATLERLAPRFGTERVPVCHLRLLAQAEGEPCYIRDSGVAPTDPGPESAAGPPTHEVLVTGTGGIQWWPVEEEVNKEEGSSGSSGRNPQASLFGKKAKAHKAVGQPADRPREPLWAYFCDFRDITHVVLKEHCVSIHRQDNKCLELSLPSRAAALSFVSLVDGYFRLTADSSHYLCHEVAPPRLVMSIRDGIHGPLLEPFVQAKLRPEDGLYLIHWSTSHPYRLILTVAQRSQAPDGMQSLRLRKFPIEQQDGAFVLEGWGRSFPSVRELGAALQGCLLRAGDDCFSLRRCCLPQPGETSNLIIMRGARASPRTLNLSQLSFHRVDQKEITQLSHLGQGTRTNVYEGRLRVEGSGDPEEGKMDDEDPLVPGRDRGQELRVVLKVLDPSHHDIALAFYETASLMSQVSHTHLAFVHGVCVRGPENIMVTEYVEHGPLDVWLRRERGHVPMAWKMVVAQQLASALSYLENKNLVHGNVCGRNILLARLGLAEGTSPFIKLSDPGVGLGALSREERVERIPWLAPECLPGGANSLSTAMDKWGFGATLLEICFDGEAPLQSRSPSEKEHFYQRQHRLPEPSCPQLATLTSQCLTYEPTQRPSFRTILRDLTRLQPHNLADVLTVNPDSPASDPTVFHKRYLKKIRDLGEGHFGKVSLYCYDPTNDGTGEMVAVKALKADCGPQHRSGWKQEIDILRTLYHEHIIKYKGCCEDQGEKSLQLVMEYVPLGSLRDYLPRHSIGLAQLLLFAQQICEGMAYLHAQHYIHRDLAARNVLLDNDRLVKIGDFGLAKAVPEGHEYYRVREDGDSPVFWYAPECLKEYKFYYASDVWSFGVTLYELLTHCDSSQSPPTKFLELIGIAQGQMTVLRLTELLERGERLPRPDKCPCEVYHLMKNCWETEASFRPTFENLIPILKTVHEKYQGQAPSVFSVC
Structures can show the parent of a compound that is named as a salt.
Some compounds, each annotated with its measured IC50.

Please review the following examples before continuing.
INSERT INTO results (compound, result) VALUES
  ('O=C(Nc1cc2cc(c1)Nc1nc(ncc1Cl)Nc1cccc(c1)CC2)c1nc2ccccc2s1 [Example B204, trifluoroacetate]', '> 1000 nM'),
  ('O=C(Nc1ccc2cc1CCc1cncc(c1)Nc1ncc(Cl)c(n1)N2)N1CCC(S(=O)(=O)c2ccccc2)C1 (stereo not shown) [Example B321, bis(trifluoroacetate)]', '> 400 nM'),
  ('O=C(Nc1ccc2cc1CCc1cncc(c1)Nc1ncc(Cl)c(n1)N2)N1CCN(Cc2ccccc2)CC1', '> 200 nM');

Note: attention shifts to another entry.
Record summary for O=C(Nc1ccc2cc1CCc1cncc(c1)Nc1ncc(Cl)c(n1)N2)N1CCC(c2cnccn2)C1 (stereo not shown) [Example B313, (trifluoroacetate)] : reported IC50 = > 400 nM

====

target: human JAK1 (a.a. 837-1142) (Homo sapiens); construct: human JAK1 (a.a. 837-1142); His tag (N); made in house; host or cells: insect cells (baculovirus); assay: In vitro JAK kinase assay (HTRF, phosphorylation of a biotinylated peptide), JAK1; format: biochemical; conditions: method AA1 (90 μM ATP) or AA2 (1000 μM ATP), not stated per value; read-out: JAK1 IC50
Sequence (P23458 849-1154): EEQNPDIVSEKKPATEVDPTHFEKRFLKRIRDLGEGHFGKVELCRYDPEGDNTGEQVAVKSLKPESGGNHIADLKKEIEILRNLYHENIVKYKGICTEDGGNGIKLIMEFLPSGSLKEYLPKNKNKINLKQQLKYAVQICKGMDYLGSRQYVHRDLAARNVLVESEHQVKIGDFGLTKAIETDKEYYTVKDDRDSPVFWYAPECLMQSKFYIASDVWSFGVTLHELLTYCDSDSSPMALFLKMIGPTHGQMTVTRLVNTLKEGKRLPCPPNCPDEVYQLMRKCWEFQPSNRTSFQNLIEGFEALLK
pIC50: −log10 of the molar value. Structures can show the parent of a compound that is named as a salt.
assay.endpoint: pIC50

INSERT INTO measurements (compound, quantitative_result) VALUES
  ('CS(=O)(=O)N1CCC(CC(=O)Nc2ccc3cc2CCc2cncc(c2)Nc2ncc(Cl)c(n2)N3)CC1 [Example A79, bis(trifluoroacetate)]', 9.30);

A. CC(=O)N1CCC(C(=O)Nc2ccc3cc2CCc2cccc(c2)Nc2ncc(Cl)c(n2)N3)CC1 [Example A29, trifluoroacetate]
B. O=C(CC1CCN(C(=O)Nc2ccccc2F)CC1)Nc1ccc2cc1CCc1cncc(c1)Nc1ncc(Cl)c(n1)N2 [Example A146, bis(trifluoroacetate)]
Incoming: Form field 'greater pIC50' accepts A or B ; which applies? // output: label of the selected item
Outgoing: B

1. Cc1cc(C(=O)N2CCC(CC(=O)Nc3ccc4cc3CCc3cccc(c3)Nc3ncc(Cl)c(n3)N4)CC2)n[nH]1 [Example A175, bis(trifluoroacetate)]
2. O=C(CC1CCN(C(=O)c2cnccn2)CC1)Nc1ccc2cc1CCc1cncc(c1)Nc1ncc(Cl)c(n1)N2 [Example A102, tris(trifluoroacetate)]
3. CC(C)NC(=O)N1CCC(CC(=O)Nc2ccc3cc2CCc2cccc(c2)Nc2ncc(Cl)c(n2)N3)CC1 [Example A84, trifluoroacetate]
Incoming: Endpoint returns the given compounds ordered by ascending pIC50. // ordering of labels required in reply
Outgoing: 3, 2, 1
(3: 7.62, 2: 8.00, 1: 9.00)
